- Test system: HEK-293T
- PROCEDURE_DETAILS: Multiplex assay against HEK293T
- Format: toxicity, cell-based
- CONDITION_SUMMARY: human, 48 h, 1 µM, compound concentration 1 uM, replicate 2
Reported Population Pyknosed Nuclei (%) values for the following compounds.
# number only, unit % dropped from output

Solved entries:
// query Data request, read-out Population Pyknosed Nuclei (%), for O=C1[C@H](Cc2ccc(O)cc2)N2C(=O)CCN(C(=O)NCc3ccccc3)[C@H]2CN1Cc1cccc2ccccc12
// result 7

// query Data request, read-out Population Pyknosed Nuclei (%), for CCCOc1ccc2[nH]cc(C3=CCNCC3)c2n1.Cl
// result 7

# evaluate next
// query Data request, read-out Population Pyknosed Nuclei (%), for Cc1noc(-c2ccc(-c3ccc(CC(=O)O)cc3)cc2)c1NC(=O)O[C@H](C)c1ccccc1Cl
// result 10

###

- Tested on: HEK-293T
- PROCEDURE_DETAILS: Multiplex assay against HEK293T
- Type: toxicity, cell-based
- CONDITION_SUMMARY: human, 24 h, 10 µM, compound concentration 10 uM, replicate 1
Reported Population Healthy Nuclei (%) values for the following molecules.
# number only, unit % dropped from output

// query Data request, read-out Population Healthy Nuclei (%), for CC[C@@H](C)Nc1nc(C)nc2c(-c3ccc(OC)nc3C)c(C)nn12
// result 79

Further cases:
// query Data request, read-out Population Healthy Nuclei (%), for CCCCC(=O)N(Cc1ccc(-c2ccccc2-c2nnn[nH]2)cc1)[C@H](C(=O)O)C(C)C
// result 82

// query Data request, read-out Population Healthy Nuclei (%), for C[C@H](N)COC(=O)[C@@H](CCCCN)NC(=O)Cc1c(-c2ccc3ccccc3c2)[nH]c2c1ccc1ccccc12
// result 78

// query Data request, read-out Population Healthy Nuclei (%), for CN(C)C(=O)Cn1cc(-c2ccc(-c3cncc4ccccc34)cc2)cn1
// result 75

###

Reported Population Mitotic Cells (%) values for the following molecules.
- System: HEK-293T
- PROCEDURE_DETAILS: Multiplex assay against HEK293T
- Type: toxicity, cell-based
- CONDITION_SUMMARY: human, 24 h, 1 µM, compound concentration 1 uM, replicate 2
# number only, unit % dropped from output

Solved entries:
// query Quick check: Population Mitotic Cells (%) on HEK-293T, item COc1cccc2c1c(NS(=O)(=O)c1ccc(Cl)s1)nn2Cc1cccc(CNC(=O)C(C)(C)O)c1 ?
// result 55

// query Quick check: Population Mitotic Cells (%) on HEK-293T, item COC[C@@H](c1ccc(C(F)(F)F)cc1)N1CCN(C2(C)CCN(C(=O)c3c(C)ncnc3C)CC2)C[C@@H]1C.O=C(O)/C=C\C(=O)O [VICRIVIROC MALEATE] ?
// result 68

// query Quick check: Population Mitotic Cells (%) on HEK-293T, item Cc1cnc(-c2cc(N3CCN(C(=O)CCS(C)(=O)=O)CC3)ncc2Cl)c(C)c1 ?
// result 60

// query Quick check: Population Mitotic Cells (%) on HEK-293T, item Cc1noc(-c2ccc(-c3ccc(CC(=O)O)cc3)cc2)c1NC(=O)O[C@H](C)c1ccccc1Cl ?
// result 60

// query Quick check: Population Mitotic Cells (%) on HEK-293T, item CCCCC1=NC2(CCCC2)C(=O)N1Cc1ccc(-c2ccccc2-c2nnn[nH]2)cc1 [IRBESARTAN] ?
// result 65

Further cases:
// query Quick check: Population Mitotic Cells (%) on HEK-293T, item N#Cc1c(Oc2cccc(OS(=O)(=O)CCCC(F)(F)F)c2)cccc1C(F)(F)F ?
// result 40

// query Quick check: Population Mitotic Cells (%) on HEK-293T, item Cc1c(CC(=O)O)c2cccnc2n1Cc1ccc(S(C)(=O)=O)cc1C(F)(F)F [FEVIPIPRANT] ?
// result 56

// query Quick check: Population Mitotic Cells (%) on HEK-293T, item CN(C)C(=O)Cn1cc(-c2ccc(-c3cncc4ccccc34)cc2)cn1 ?
// result 60

// query Quick check: Population Mitotic Cells (%) on HEK-293T, item CC(=O)Nc1cccc2c1c(Sc1ccc(Cl)cc1)c(C)n2CC(=O)O [AZD1981] ?
// result 45

// query Quick check: Population Mitotic Cells (%) on HEK-293T, item O=C1[C@H](Cc2ccc(O)cc2)N2C(=O)CCN(C(=O)NCc3ccccc3)[C@H]2CN1Cc1cccc2ccccc12 ?
// result 45

// query Quick check: Population Mitotic Cells (%) on HEK-293T, item COc1ccccc1N1CCN(C[C@@H](C(=O)NC(C)(C)C)c2ccccc2)CC1.Cl.Cl ?
// result 65

// query Quick check: Population Mitotic Cells (%) on HEK-293T, item Cc1onc(-c2ccccc2Cl)c1C(=O)N(C)c1ccc(Cl)cc1 ?
// result 57

// query Quick check: Population Mitotic Cells (%) on HEK-293T, item Cl.NCCc1ccc(O)c(O)c1 [DOPAMINE HYDROCHLORIDE] ?
// result 79

// query Quick check: Population Mitotic Cells (%) on HEK-293T, item CCCCC(=O)N(Cc1ccc(-c2ccccc2-c2nnn[nH]2)cc1)[C@H](C(=O)O)C(C)C ?
// result 67

###

- Test system: Fibroblast
- PROCEDURE_DETAILS: Multiplex assay against human fibroblast
- Type: toxicity, cell-based
- CONDITION_SUMMARY: 48 h, 10 µM, compound concentration 10 uM, replicate 1
Reported Population Fragmented Nuclei (%) values for the following compounds.
# number only, unit % dropped from output

// query Quick check: Population Fragmented Nuclei (%) on Fibroblast, item CCCCCC(O)/C=C/[C@H]1C(=O)CC(O)C1C/C=C\CCCC(=O)O (stereo partly drawn) ?
// result 17

Further cases:
// query Quick check: Population Fragmented Nuclei (%) on Fibroblast, item N#Cc1cc(F)cc(-c2nc(-c3ccc(F)cn3)no2)c1 ?
// result 20

// query Quick check: Population Fragmented Nuclei (%) on Fibroblast, item Cc1cnc(-c2cc(N3CCN(C(=O)CCS(C)(=O)=O)CC3)ncc2Cl)c(C)c1 ?
// result 21

###

- Test system: U2OS
- PROCEDURE_DETAILS: Multiplex assay against U2OS
- Type: toxicity, cell-based
- CONDITION_SUMMARY: human, 48 h, 10 µM, compound concentration 10 uM, replicate 2
Reported Population Tubulin-Different-Phenotype (%) values for the following compounds.
# number only, unit % dropped from output

Solved entries:
// query Data request, read-out Population Tubulin-Different-Phenotype (%), for O=C(NCCN1CCC(n2c(=O)[nH]c3cc(Cl)ccc32)CC1)c1ccc(F)cc1 [HALOPEMIDE]
// result 6

// query Data request, read-out Population Tubulin-Different-Phenotype (%), for COc1ccccc1N1CCN(C[C@@H](C(=O)NC(C)(C)C)c2ccccc2)CC1.Cl.Cl
// result 35

Further cases:
// query Data request, read-out Population Tubulin-Different-Phenotype (%), for CC(C)(C)c1cc(NC(=O)Nc2ccc(-c3cn4c(n3)sc3cc(OCCN5CCOCC5)ccc34)cc2)no1 [QUIZARTINIB]
// result 28

###

Reported Population Mitotic Cells (%) values for the following compounds.
- Tested on: Fibroblast
- PROCEDURE_DETAILS: Multiplex assay against human fibroblast
- Type: toxicity, cell-based
- CONDITION_SUMMARY: 48 h, 1 µM, compound concentration 1 uM, replicate 2
# number only, unit % dropped from output

Solved entries:
// query Data request, read-out Population Mitotic Cells (%), for CN[C@@H](C)C(=O)N[C@H](C(=O)N1CCC[C@H]1C(=O)Nc1snnc1-c1ccccc1)C1CCCCC1
// result 42

// query Data request, read-out Population Mitotic Cells (%), for Cl.N=C(N)NC(=O)Cc1c(Cl)cccc1Cl [GUANFACINE HYDROCHLORIDE]
// result 50

// query Data request, read-out Population Mitotic Cells (%), for CC(=O)Nc1cccc2c1c(Sc1ccc(Cl)cc1)c(C)n2CC(=O)O
// result 42

Further cases:
// query Data request, read-out Population Mitotic Cells (%), for O=C(CCCc1ccccc1)Nc1nc2ccccc2c(=O)s1
// result 57

// query Data request, read-out Population Mitotic Cells (%), for COc1ccccc1N1CCN(C[C@@H](C(=O)NC(C)(C)C)c2ccccc2)CC1.Cl.Cl
// result 40

###

- Test system: U2OS
- PROCEDURE_DETAILS: Multiplex assay against U2OS
- Type: toxicity, cell-based
- CONDITION_SUMMARY: human, 48 h, 1 µM, compound concentration 1 uM, replicate 2
So basically, if Population Tubulin-Different-Phenotype (%) comes in under 3% it's satisfied, and if it's 3% or more it's not satisfied.

Study these solved cases before continuing.
// query Bench note: check whether Cc1sc2c(c1C)C(c1ccc(Cl)cc1)=N[C@@H](CC(=O)NCCCCCCCCNC(=O)COc1cccc3c1C(=O)N(C1CCC(=O)NC1=O)C3=O)c1nnc(C)n1-2 (stereo partly specified) shows Population Tubulin-Different-Phenotype (%) below 3%
// result satisfied

// query Bench note: check whether O=C(CCCc1ccccc1)Nc1nc2ccccc2c(=O)s1 shows Population Tubulin-Different-Phenotype (%) below 3%
// result not satisfied

// query Bench note: check whether CC(=O)Nc1cccc2c1c(Sc1ccc(Cl)cc1)c(C)n2CC(=O)O shows Population Tubulin-Different-Phenotype (%) below 3%
// result satisfied

// query Bench note: check whether Cc1cccc(NC(=O)CN2CCC(c3ccccn3)CC2)c1.Cl.Cl shows Population Tubulin-Different-Phenotype (%) below 3%
// result satisfied

// query Bench note: check whether Br.CS(=O)(=O)Nc1c(O)ccc2c1CCCC2C1=NCCN1 (stereo unspecified) shows Population Tubulin-Different-Phenotype (%) below 3%
// result satisfied

// query Bench note: check whether CN(C)C(=O)Cn1cc(-c2ccc(-c3cncc4ccccc34)cc2)cn1 shows Population Tubulin-Different-Phenotype (%) below 3%
// result not satisfied

Further cases:
// query Bench note: check whether C[C@H](N)COC(=O)[C@@H](CCCCN)NC(=O)Cc1c(-c2ccc3ccccc3c2)[nH]c2c1ccc1ccccc12 shows Population Tubulin-Different-Phenotype (%) below 3%
// result satisfied

// query Bench note: check whether Cc1c(CC(=O)O)c2cccnc2n1Cc1ccc(S(C)(=O)=O)cc1C(F)(F)F shows Population Tubulin-Different-Phenotype (%) below 3%
// result not satisfied

// query Bench note: check whether COC[C@@H](c1ccc(C(F)(F)F)cc1)N1CCN(C2(C)CCN(C(=O)c3c(C)ncnc3C)CC2)C[C@@H]1C.O=C(O)/C=C\C(=O)O [VICRIVIROC MALEATE] shows Population Tubulin-Different-Phenotype (%) below 3%
// result not satisfied

// query Bench note: check whether CC(/C=C1\SC(=S)N(CCCC(=O)Nc2ccc(C(=O)O)c(O)c2)C1=O)=C\c1ccccc1 shows Population Tubulin-Different-Phenotype (%) below 3%
// result satisfied

// query Bench note: check whether N#Cc1c(Oc2cccc(OS(=O)(=O)CCCC(F)(F)F)c2)cccc1C(F)(F)F shows Population Tubulin-Different-Phenotype (%) below 3%
// result not satisfied

// query Bench note: check whether O=C(NCCN1CCC(n2c(=O)[nH]c3cc(Cl)ccc32)CC1)c1ccc(F)cc1 [HALOPEMIDE] shows Population Tubulin-Different-Phenotype (%) below 3%
// result not satisfied

Where these numbers come from: ChEMBL document CHEMBL5058577
